Measured values drawn from ChEMBL document CHEMBL1201862 for this set.

EXPERIMENTAL_TARGET: 72 kDa type IV collagenase (Homo sapiens, UniProt P08253)
Sequence (P08253 whole entry): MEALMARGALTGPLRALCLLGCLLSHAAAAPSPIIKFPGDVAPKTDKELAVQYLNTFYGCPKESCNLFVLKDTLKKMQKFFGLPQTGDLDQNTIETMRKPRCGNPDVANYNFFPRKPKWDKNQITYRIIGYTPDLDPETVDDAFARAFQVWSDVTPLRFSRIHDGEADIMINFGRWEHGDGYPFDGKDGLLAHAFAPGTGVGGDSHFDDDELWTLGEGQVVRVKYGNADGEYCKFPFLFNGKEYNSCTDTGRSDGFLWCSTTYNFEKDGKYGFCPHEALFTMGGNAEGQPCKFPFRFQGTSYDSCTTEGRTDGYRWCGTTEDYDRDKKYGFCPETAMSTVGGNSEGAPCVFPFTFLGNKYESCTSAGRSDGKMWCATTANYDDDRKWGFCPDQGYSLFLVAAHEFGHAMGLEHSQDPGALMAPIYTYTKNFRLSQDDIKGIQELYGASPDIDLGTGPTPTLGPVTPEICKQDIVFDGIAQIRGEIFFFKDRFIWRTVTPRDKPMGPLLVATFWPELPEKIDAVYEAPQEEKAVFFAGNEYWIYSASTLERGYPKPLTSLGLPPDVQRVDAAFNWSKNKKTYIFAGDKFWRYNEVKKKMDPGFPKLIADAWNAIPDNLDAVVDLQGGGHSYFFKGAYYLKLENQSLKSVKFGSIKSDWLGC
ASSAY_TEXT: Dose Response validation of uHTS RPN11 inhibitor hits using a MMP-2 Fluorescence assay.
Assay type: functional
Calls of active or inactive are those of the source.
Valid outcomes are listed here; reply with one: yes (active), no (inactive)

Fill in: this test's call for Cn1c(=O)c2cc(S(=O)(=O)NC(C(=O)Nc3cccc(F)c3)c3ccccc3)ccc2n(C)c1=O (centres undefined) is ___ no

Record: `O=C(N/N=C/c1cc(Br)cc(Cl)c1O)c1ccc2c(c1)OCO2` yes

Record: `Cc1cc(O)nc(NN/C=C2/C(=O)N(c3ccccc3)C(=O)c3ccccc32)n1` no

Record: CN1CCN(C(c2ccc(Cl)cc2)c2cc(Cl)c3cccnc3c2O)CC1 (centres undefined) yes

----------
System: Streptococcus sp. 'group A'
ASSAY_TEXT: growth inhibition of control SK(-) GAS strain, dose response, counter-screen for streptokinase expression inhibitor project, luminescence, kanamycin, BacTiterGlo, confirmation (AID 1900)
Type: functional, organism-based
Calls of active or inactive are those of the source.
QUANTITY_KIND: EC50

Give EC50 (Streptococcus sp. 'group A') of the following compound: `Oc1ccccc1/C=N/Nc1nc2ccccc2o1` 1.9 µM (active)

Record: C[C@@H](O)[C@H]1C(=O)N2C(C(=O)O)=C(S[C@@H]3CN[C@H](C(=O)N(C)C)C3)[C@H](C)[C@H]12 [MEROPENEM] 0.153 µM (active)

Record: Cc1ccc(S(=O)(=O)NCC(=O)OCC(=O)N2N=C(c3ccc(Cl)cc3)CC2c2ccco2)cc1C (stereo unspecified) 18.6 µM (active)

Record: `O=C(Cc1cccs1)NNC(=S)NC(=O)c1ccccc1` 4.36 µM (active)

Record: `Cc1ccc(Nc2nc(N)nc(CN3CCN(c4ccccc4)CC3)n2)cc1Cl` 8.53 µM (active)

Record: `O=C(c1ccc(F)cc1)c1cc2ccc(O)cc2oc1=O` 10.7 µM (active)

Record: CN1CCN(C(c2ccc(Cl)cc2)c2cc(Cl)c3cccnc3c2O)CC1 (stereo unspecified) 1.92 µM (active)

Record: `CCN(c1ccccc1)S(=O)(=O)c1ccc(C(=O)Nc2nnc(-c3ccco3)o2)cc1` 1.61 µM (active)

Record: `O=C(NNC(=O)c1cc(-c2ccc(Cl)c(Cl)c2)nc2ccccc12)Nc1ccccc1` 4.69 µM (active)

Record: `c1cn2c(NC3CCCCC3)c(-c3ccc(SC4CCCCC4)cc3)nc2cn1` 1.01 µM (active)

Record: CC1CCC(C(=O)c2c(O)oc3ccccc3c2=O)CC1 (stereo unspecified) 10.4 µM (active)

----------
EXPERIMENTAL_TARGET: UniProt:P9WMR3
Sequence (P9WMR3 whole entry): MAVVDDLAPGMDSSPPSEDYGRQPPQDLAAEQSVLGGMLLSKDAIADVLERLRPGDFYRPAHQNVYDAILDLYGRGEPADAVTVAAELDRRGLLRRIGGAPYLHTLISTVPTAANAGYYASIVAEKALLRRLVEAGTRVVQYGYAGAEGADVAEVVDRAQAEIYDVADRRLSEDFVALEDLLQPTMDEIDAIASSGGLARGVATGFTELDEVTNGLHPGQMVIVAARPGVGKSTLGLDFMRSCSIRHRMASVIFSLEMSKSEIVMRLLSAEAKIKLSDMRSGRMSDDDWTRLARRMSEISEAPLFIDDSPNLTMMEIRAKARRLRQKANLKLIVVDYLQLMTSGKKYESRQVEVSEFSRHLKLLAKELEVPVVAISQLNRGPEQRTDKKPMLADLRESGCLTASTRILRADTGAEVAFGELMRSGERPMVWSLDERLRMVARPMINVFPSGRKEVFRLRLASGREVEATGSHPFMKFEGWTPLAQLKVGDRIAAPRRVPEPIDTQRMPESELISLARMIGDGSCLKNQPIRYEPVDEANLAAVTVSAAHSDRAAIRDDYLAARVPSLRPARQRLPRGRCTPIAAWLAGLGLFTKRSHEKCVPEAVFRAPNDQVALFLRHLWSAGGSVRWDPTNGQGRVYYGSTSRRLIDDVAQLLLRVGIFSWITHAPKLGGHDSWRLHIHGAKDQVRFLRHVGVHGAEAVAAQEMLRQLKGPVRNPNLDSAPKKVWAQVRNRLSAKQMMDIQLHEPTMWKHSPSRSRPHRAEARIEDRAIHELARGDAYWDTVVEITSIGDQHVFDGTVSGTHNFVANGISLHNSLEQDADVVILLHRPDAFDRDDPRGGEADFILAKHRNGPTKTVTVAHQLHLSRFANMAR
ASSAY_TEXT: DnaB intein splicing inhibitors, dose response, biochemical, cell-free fluorescence (AID 449749)
Type: functional
The source made the active and inactive calls.
Valid outcomes are listed here; reply with one: 1.0 (active), 0.0 (inactive)

Fill in: this test's call for `COc1ccc(OC)c(N2C(=O)C(Cl)=C(N3CCOCC3)C2=O)c1` is ___ 1.0

Record: `O=C(OCn1ncc(Cl)c(Cl)c1=O)c1ccccc1Cl` 1.0

Record: CN1CCN(C(c2ccc(Cl)cc2)c2cc(Cl)c3cccnc3c2O)CC1 (stereo unspecified) 0.0

Record: `CC1=NN(Cc2ccccc2)C(=O)/C1=C/c1ccc(N(C)C)cc1` 1.0

Record: `Cc1ccc(C=C2C(Cl)=C(Cl)C(Cl)=C2Cl)cc1` 0.0

Record: `O=C(CCl)N(Cc1cc(O)nc2ccccc12)c1ccccc1` 1.0
